Numbers sourced from patent US8883745B2.

tested on: IL-12; experiment: IL-12 levels in sera upon i.v. glycolipid administration to BALB/c mice (ELISA); assay type: in vivo; parameters: unit not given here; conditions: serum, hour 2
property-name: IL-12 levels, average
Provide a numeric answer; units are not to be included.

Reference set, count: 2
# molecule, property-name, quantitative-readout
rows = [
    ("CCCCCCCCCCCCCCCCCCCCCCCCCCCCC(=O)N[C@@H](/C=C/[C@H]1O[C@H](CO)[C@H](O)[C@H](O)[C@H]1O)[C@H](O)[C@H](O)CCCCCCCCCCCCCC", "IL-12 levels, average", 74),
    ("CCCCCCCCCCCCCCCCCCCCCCCCCC(=O)N[C@@H](CO[C@H]1O[C@H](CO)[C@H](O)[C@H](O)[C@H]1O)[C@H](O)[C@H](O)CCCCCCCCCCCCCC [KRN, reference compound]", "IL-12 levels, average", 124),
]

Shift focus to the following entry.
Form: molecule = CCCCCCCCCCCCCC[C@@H](O)[C@@H](O)[C@H](CC[C@H]1O[C@H](CO)[C@H](O)[C@H](O)[C@H]1O)NC(=O)CCCCCCCCCCCCCCCCCCCOCCCCCC ; IL-12 levels, average = 54.5

---

system: IL-4; test: IL-4 levels in sera upon i.v. glycolipid administration to C57BL/6 mice (ELISA); assay type: in vivo; parameters: unit not given here; details: hour 72
Documented IL-4 level, average across a set of compounds
Provide a numeric answer; units are not to be included.

Reference set, count: 5
# compound, IL-4 level, average
data = [
    ("CCCCCCCCCCCCCCCCCC/C=C/CCCCCCCCC(=O)N[C@@H](/C=C/[C@H]1O[C@H](CO)[C@H](O)[C@H](O)[C@H]1O)[C@H](O)[C@H](O)CCCCCCCCCCCCCC", 88),
    ("CCCCCCCCCCCCCC[C@@H](O)[C@@H](O)[C@H](CC[C@H]1O[C@H](CO)[C@H](O)[C@H](O)[C@H]1O)NC(=O)CCCCCCCCCCCCCCCCCCCOCCCCCC", 41.5),
    ("CCCCCCCCCCCCCCCCC/C=C/CCCCCCCCC(=O)N[C@@H](CC[C@H]1O[C@H](CO)[C@H](O)[C@H](O)[C@H]1O)[C@H](O)[C@H](O)CCCCCCCCCCCCCC", 58),
    ("CCCCCCCCCCCCCC[C@@H](O)[C@@H](O)[C@H](CC[C@H]1O[C@H](CO)[C@H](O)[C@H](O)[C@H]1O)NC(=O)CCCCCCCCCCCCCCCCCCCOCCCCC", 64.5),
    ("CCCCCCCCCCCCCCCCCCCCCCCCCC(=O)N[C@@H](CO[C@H]1O[C@H](CO)[C@H](O)[C@H](O)[C@H]1O)[C@H](O)[C@H](O)CCCCCCCCCCCCCC [KRN, reference compound]", 0.5),
]

Form: compound = CCCCCCCCCCCCCCCCCCCCCCCCCC(=O)N[C@@H](CC[C@H]1O[C@H](CO)[C@H](O)[C@H](O)[C@H]1O)[C@H](O)[C@H](O)CCCCCCCCCCCCCC [CRONY, reference compound] ; IL-4 level, average = 21.5

Form: compound = CCCCCCCCCCCCCCCCCCCCCCCCCCCCC(=O)N[C@@H](/C=C/[C@H]1O[C@H](CO)[C@H](O)[C@H](O)[C@H]1O)[C@H](O)[C@H](O)CCCCCCCCCCCCCC ; IL-4 level, average = 61.5
